Test system: Plasmodium falciparum
EXPERIMENT SUMMARY: Confirmatory screen in NF54 nanoGlo assay, in single point, at 2uM, 72h
Assay type: functional, Erythrocyte
CONDITIONS USED: timepoint 72 hour
Screen size: about 4,800 compounds; about 420 (8.8%) showed an effect of 50% or more. Shown is part of a subset that was picked to be rich in strong results.
REPORTED METRIC: % Inhibition (%)
Give the value, in units of %, as a plain number.

Use these answered entries as a reference point.
COc1ccc(NC(=O)[C@@H]2COCC(=O)N2Cc2ccc(C)cc2)cc1	1
COc1cccc([C@H]2CC(=O)Nc3c2cnn3C)c1	-8
O=C(Cn1c(=O)n(Cc2nc(-c3ccccc3)no2)c(=O)c2ccccc21)Nc1cccc(Cl)c1	5
COc1ccc(-c2cc(C[C@H]3CNCC[C@H]3CC(=O)Nc3ccccc3)no2)cc1	-7
CCc1ccc(C2=C[C@@H](c3cccc(OC)c3)n3ncc(C(=O)Nc4ccc(C)cc4)c3N2)cc1	70
COc1ccnc(N2CCc3nn(C(C)C)c(=O)cc3C2)n1	-4
Cc1ccc(CNC(=O)c2nc(-c3ccncc3)cs2)o1	7
N[C@H]1C[C@H](c2cc(NCCCc3cccnc3)nc(C3CC3)n2)C1	75

Problem: # % Inhibition lookup, item CCn1ccc([C@H](C)NC(=O)c2cc(C)c(C)s2)n1
Result: -6

Problem: Ok, now O=c1cc(COc2ccc(F)c(F)c2)nc2sccn12
Result: 3

###

System: Plasmodium falciparum
EXPERIMENT SUMMARY: Confirmatory screen in NF54 nanoGlo assay, in single point, at 2uM, 72h
Type: functional, Erythrocyte
CONDITIONS USED: timepoint 72 hour
The whole screen tested about 4,800 compounds, of which about 420 (8.8%) showed an effect of 50% or more. The sample holds strong results, similar compounds and a random draw of the others, so the mix is not that of the screen.
Parameter % Inhibition: see the listing below.
Give the value, in units of %, as a plain number.

CC(C)(C)C(=O)Nc1cc(Br)c(O)c(Br)c1	3

Problem: # % Inhibition lookup, item Cc1ccccc1Cn1nc2ccc(S(=O)(=O)N3CCOCC3)cn2c1=O
Result: 4

Problem: Ok, now Cc1oc(-c2ccn[nH]2)cc1S(=O)(=O)Nc1ccc(F)c(Cl)c1
Result: 40

Problem: Ok, now CCc1nnc2ccc(S(=O)(=O)Nc3ccc(Cl)cc3)cn12
Result: 8

Problem: Ok, now c1ccc2c(c1)ccc1oc(-c3ccn[nH]3)cc12
Result: -5

Problem: Ok, now CCCNC(=O)C[C@H](C)CC(=O)NCCc1ccc(OC)c(OC)c1
Result: 4

Problem: Ok, now Cc1nc2cc(F)ccc2cc1C(=O)N1CCN(S(=O)(=O)c2ccc(Br)cc2)CC1
Result: 0

Problem: Ok, now COc1ccc(CCNC(=O)CCCC(=O)NCc2ccccc2)cc1OC
Result: -14

Problem: Ok, now COC(=O)C1=C(C(=O)OC)SC(=C2C(=S)C(C)(C)N(C(=O)c3cccnc3)c3c(C)cc(C)cc32)S1
Result: 4

Problem: Ok, now Nc1noc2cc(C(F)(F)F)cnc12
Result: 4

Problem: Ok, now CC(C)N(C)CC1CCN(C(=O)c2cc(-c3ccccc3)c(N3CCOCC3)s2)CC1
Result: -4
